Protocol: chemical genetic growth profiling, strain panel (AID 1159580);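 also: tested at 20 µM; growth read once vehicle control cultures reached saturation at 30 °C; 1 = growth at the plate median or of vehicle wells; lower values mean less growth of the strain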
Applied conditions: S. cerevisiae deletion strains, growth OD, locus YOR144C, strain elg1
Among all 5,500 compounds or so, about 2,000 (36%) were called active. Another 18% or so got no clear call; they are omitted. Rule as the data show it: active = normalized growth mostly below about 0.91 (no sharp cut-off); inconclusive = no clear call, values can overlap the other calls; inactive = mostly above about 0.92. The list shows a part of the results.
API: response.call in active, inactive

COC(=O)[C@@H]1C(O)CC[C@H]2CN3CCc4c([nH]c5ccccc45)[C@@H]3C[C@@H]21 (some centres undefined) | inactive
CN1C2CC3C[C@H]1C(O3)C2O (some centres undefined) | inactive
O=C(O)COc1cc(Cl)c(Cl)cc1Cl | inactive
COc1ccc(-c2coc3c(OC)c(O)ccc3c2=O)cc1 | inactive
Cc1ccc(O)cc1 | inactive

Task: Outcome logged for CN=C(NC#N)NCCSCc1nc[nH]c1C in this assay:
Output: inactive

Task: Just curious, what result did OC(CCN1CCCCC1)(c1ccccc1)c1ccccc1 get here?
Output: inactive

Task: Test call, this molecule: COc1cc(O)c2c(=O)cc(C)oc2c1CC=C(C)C
Output: active

Task: I'd appreciate the recorded outcome for CC(=O)O[C@H]1C(=O)[C@@]2(C)C([C@H](OC(=O)c3ccccc3)[C@]3(O)C[C@H](OC(=O)[C@H](O)[C@@H](NC(=O)c4ccccc4)c4ccccc4)C(C)=C1C3(C)C)[C@]1(OC(C)=O)CO[C@@H]1C[C@@H]2O (some centres undefined) from this test.
Output: active

* * *

Protocol: chemical genetic growth profiling, strain panel (AID 1159580)
Applied conditions: S. cerevisiae deletion strains, growth OD, locus YEL061C, strain CIN8
Out of some 5,500 compounds screened, about 2,000 (36%) were called active. Roughly 18% stayed inconclusive and do not appear here. Rule as the data show it: active = normalized growth mostly below about 0.91 (no sharp cut-off); inconclusive = no clear call, values can overlap the other calls; inactive = mostly above about 0.92. Some of the results follow.
Write down one outcome, taken from 1 (yes) (active), 0 (no) (inactive)

Use these answered entries as a reference point.
OC(CCN1CCCCC1)(c1ccccc1)c1ccccc1 | 0 (no)
COc1cc(O)c(C(=O)c2ccccc2)cc1O | 0 (no)
COc1ccc(S(=O)(=O)Nc2cc(C)c(C)cc2[N+](=O)[O-])c(OC)c1 | 0 (no)

Task: Please state the recorded outcome for this molecule: COC(=O)c1cc(OC)c(OC)c(OC)c1NS(=O)(=O)c1cc(OC)ccc1OC
Output: 0 (no)

Task: Which outcome did this test record for the molecule CCCCOc1ccc(C(=O)CCN2CCCCC2)cc1 ?
Output: 1 (yes)

Task: State the result this test recorded for FC(F)(F)Oc1ccc(-c2noc(CSc3ccc(Br)cc3)n2)cc1 .
Output: 0 (no)

* * *

What normalized growth was measured for each of the following?
Protocol: chemical genetic growth profiling, strain panel (AID 1159580)
Applied conditions: S. cerevisiae deletion strains, growth OD, locus YLR058C, strain SHM2, active compounds read low
Among all 5,500 compounds or so, about 2,000 (36%) were called active. Roughly 18% stayed inconclusive and do not appear here. Some of the results follow.
One number for each entry.

Some solved cases for reference:
Cc1cc(C(C)(C)CC(C)(C)C)ccc1OCCOCC[N+](C)(C)Cc1ccccc1 | 0.052
O=C1C[C@@H](c2ccc(O)cc2)Oc2cc(O)cc(O)c21 | 1.01

I would be grateful if you could provide normalized growth for each of the following entries.
1. C=CC1=C(C(=O)O)N2C(=O)[C@@H](NC(=O)/C(=N/O)c3csc(N)n3)[C@H]2SC1
2. CN=C(NC#N)NCCSCc1nc[nH]c1C
3. CC(C)(C)CC(C)(C)c1ccc(OCCOCC[N+](C)(C)Cc2ccccc2)cc1
4. CCCCCCCCCCCCC[N+](C)(C)Cc1ccccc1
5. O=C1CC(c2ccccc2)Oc2ccccc21 (centres undefined)

Output:
[0.996, 0.989, 0.996, 0.0468, 0.992]

Provide the reported normalized growth of each entry below, same order.
1. Cc1c(O)cc(O)c2c(=O)c(-c3ccc(O)cc3)coc12
2. NC[C@@H]1O[C@H](O[C@@H]2[C@@H](CO)OC(O[C@@H]3[C@@H](O)[C@H](N)C[C@H](N)[C@H]3OC3O[C@H](CN)[C@@H](O)[C@H](O)[C@H]3N)[C@@H]2O)[C@H](N)[C@@H](O)[C@@H]1O (some centres undefined)

Output:
1: 0.993; 2: 1

* * *

Protocol: chemical genetic growth profiling, strain panel (AID 1159580);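 also: tested at 20 µM; growth read once vehicle control cultures reached saturation at 30 °C; 1 = growth at the plate median or of vehicle wells; lower values mean less growth of the strain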
Applied conditions: S. cerevisiae deletion strains, growth OD, locus YPL256C, strain CLN2
Among all 5,500 compounds or so, about 2,000 (36%) were called active. Roughly 18% stayed inconclusive and do not appear here. Rule as the data show it: active = normalized growth mostly below about 0.91 (no sharp cut-off); inconclusive = no clear call, values can overlap the other calls; inactive = mostly above about 0.92. The list shows a part of the results.
Respond using exactly one of the listed classes: active, inactive

NCCCN=c1ccc2c3c1c(O)c1c(O)ccc(=O)c1c3[nH]n2CCNCCO | active

Task: Assay result, entry O=C(/C=C/C=C/c1ccc2c(c1)OCO2)N1CCCCC1 — outcome?
Output: inactive

Task: Test call, this compound: CC(C)[N+](C)(CCOC(=O)C1c2ccccc2Oc2ccccc21)C(C)C
Output: inactive

* * *

Give normalized growth for every item shown.
Protocol: chemical genetic growth profiling, strain panel (AID 1159580);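 also: tested at 20 µM; growth read once vehicle control cultures reached saturation at 30 °C; 1 = growth at the plate median or of vehicle wells; lower values mean less growth of the strain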
Applied conditions: S. cerevisiae deletion strains, growth OD, locus YGR135W, strain pre9, active compounds read low
The campaign covered roughly 5,500 compounds. About 2,000 (36%) were called active. Another 18% or so got no clear call; they are omitted. The list shows a part of the results.

COc1ccc(C(=O)c2ccccc2)c(O)c1 | 0.729 (active)
Cc1ccc(O)cc1 | 1.01 (inactive)
CC(C)CC1C(=O)N2CCC[C@H]2C2(O)O[C@](NC(=O)C3C=C4c5cccc6[nH]c(Br)c(c56)C[C@H]4N(C)C3)(C(C)C)C(=O)N12 (stereo not given in full) | 0.982 (inactive)
COc1ccc(-c2coc3c(OC)c(OC)cc(OC)c3c2=O)cc1 | 0.969 (inactive)
CCC1(c2ccc(N)cc2)CCC(=O)NC1=O (stereo not given) | 0.991 (inactive)
COc1ccc(-c2coc3c(OC)c(OC)ccc3c2=O)cc1 | 0.968 (inactive)
COc1cc(OC)c2c(c1)OC(c1ccccc1)CC2=O (stereo not given) | 0.977 (inactive)
O=C1C[C@@H](c2ccccc2)Oc2cc(O)cc(O)c21 | 0.843 (active)

Provide reported normalized growth for each item, in the same order as listed.
1. CCC1(C)CC(=O)NC1=O (stereo not given)
2. O=C1CC(c2ccccc2)Oc2ccccc21 (stereo not given)
3. Oc1c(Cl)c(Cl)c(Cl)c(Cl)c1Cl
4. COc1ccc(-c2coc3c(OC)c(O)ccc3c2=O)cc1
5. CCc1ccc(CCOc2ccc(CC3SC(=O)NC3=O)cc2)nc1 (stereo not given)
6. COc1cccc2c1CCC1CC(=O)CCC21C (stereo not given)
7. COc1ccc([C@@H]2CC(=O)c3c(O)cc(O)cc3O2)cc1O
8. COc1ccc(C(=O)c2ccccc2O)c(O)c1

Output:
1: 1.02 (inactive); 2: 0.969 (inactive); 3: 0.732 (active); 4: 0.931 (inactive); 5: 0.993 (inactive); 6: 0.886 (active); 7: 0.979 (inactive); 8: 0.822 (active)

Parameter requested: normalized growth. Apply to each item below.
1. COC(=O)COc1cc(Cl)c(Cl)cc1Cl
2. c1ccc(CC2=NCCN2)cc1
3. C1CCc2nnnn2CC1
4. O=C(O)COc1cc(Cl)c(Cl)cc1Cl
5. C[C@@H]1O[C@@H](O[C@H]2[C@@H](Oc3cc(O)c4c(c3)O[C@H](c3ccc(O)cc3)CC4=O)O[C@H](CO)[C@@H](O)[C@@H]2O)[C@H](O)[C@H](O)[C@H]1O
6. CC(C)[N+](C)(CCOC(=O)C1c2ccccc2Oc2ccccc21)C(C)C

Output:
1. 0.971 (inactive)
2. 0.937 (inactive)
3. 1.03 (inactive)
4. 1.03 (inactive)
5. 1 (inactive)
6. 1.01 (inactive)

Provide normalized growth values for the following items, in order.
1. COc1ccc(C2CC(=O)c3ccc(OC)cc3O2)cc1 (stereo not given)
2. O=C(O)C1CC([C@@H]2CCCCN2)CN2CCCCC12 (stereo not given in full)
3. Nc1nc2[nH]c(=O)c(=O)[nH]c2c(=O)[nH]1

Output:
0.857 (active)
0.979 (inactive)
1.03 (inactive)

* * *

Protocol: chemical genetic growth profiling, strain panel (AID 1159580);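 also: tested at 20 µM; growth read once vehicle control cultures reached saturation at 30 °C; 1 = growth at the plate median or of vehicle wells; lower values mean less growth of the strain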
Applied conditions: S. cerevisiae deletion strains, growth OD, locus YCL011C, strain gbp2, active compounds read low
The campaign covered roughly 5,500 compounds. About 2,000 (36%) were called active. Roughly 18% stayed inconclusive and do not appear here. The list shows a part of the results.
met if normalized growth is below 1. not met if not; exact matches included in not met.

Task: Determine whether this molecule shows normalized growth lower than 1 (ties excluded): S=C=NCc1ccccc1
Output: met

Task: Lab note: confirm whether the reported normalized growth for this molecule is below 1, equality not counting. molecule: O=C(O)C1CC([C@@H]2CCCCN2)CN2CCCCC12 (some centres undefined)
Output: met

Task: Does this molecule meet the criterion normalized growth < 1? NC[C@@H]1O[C@H](O[C@@H]2[C@@H](CO)OC(O[C@@H]3[C@@H](O)[C@H](N)C[C@H](N)[C@H]3OC3O[C@H](CN)[C@@H](O)[C@H](O)[C@H]3N)[C@@H]2O)[C@H](N)[C@@H](O)[C@@H]1O (some centres undefined)
Output: not met

Task: Dear reviewer, please state whether C=CCc1ccc2c(c1)OCO2 has normalized growth strictly beneath 1.
Output: not met

Data origin, for the record: PubChem BioAssay AID1159580
